EXPERIMENT DESCRIPTION: activity coefficient (dimensionless); of the first substance listed, at infinite dilution; xn = mol fraction of the nth substance listed
DETAILS: 343.15 K; 101.33 kPa; Liquid; Chromatography; x1 = 0
ASSAY METRIC: activity coefficient

A selection of reference data follows.
Given item Cc1ccc(C)cc1 [1,4-dimethylbenzene] + CC(CC(C)(C)C)CP(=O)([O-])CC(C)CC(C)(C)C.CCCCCCCCCCCCCC[P+](CCCCCC)(CCCCCC)CCCCCC , the value recorded as its activity coefficient is 0.69

Given item CO [methanol] + CC(CC(C)(C)C)CP(=O)([O-])CC(C)CC(C)(C)C.CCCCCCCCCCCCCC[P+](CCCCCC)(CCCCCC)CCCCCC , the value recorded as its activity coefficient is 0.06

Given item CCCO [propan-1-ol] + CC(CC(C)(C)C)CP(=O)([O-])CC(C)CC(C)(C)C.CCCCCCCCCCCCCC[P+](CCCCCC)(CCCCCC)CCCCCC , the value recorded as its activity coefficient is 0.09

Given item CC#N [acetonitrile] + CC(CC(C)(C)C)CP(=O)([O-])CC(C)CC(C)(C)C.CCCCCCCCCCCCCC[P+](CCCCCC)(CCCCCC)CCCCCC , the value recorded as its activity coefficient is 1.46

Given item CCC(C)=O [butanone] + CC(CC(C)(C)C)CP(=O)([O-])CC(C)CC(C)(C)C.CCCCCCCCCCCCCC[P+](CCCCCC)(CCCCCC)CCCCCC , the value recorded as its activity coefficient is 0.77

Given item C1CCOC1 [tetrahydrofuran] + CC(CC(C)(C)C)CP(=O)([O-])CC(C)CC(C)(C)C.CCCCCCCCCCCCCC[P+](CCCCCC)(CCCCCC)CCCCCC , the value recorded as its activity coefficient is 0.52

Given item C1CCCCCCC1 [cyclooctane] + CC(CC(C)(C)C)CP(=O)([O-])CC(C)CC(C)(C)C.CCCCCCCCCCCCCC[P+](CCCCCC)(CCCCCC)CCCCCC , the value recorded as its activity coefficient is 0.79

Given item CCO [ethanol] + CC(CC(C)(C)C)CP(=O)([O-])CC(C)CC(C)(C)C.CCCCCCCCCCCCCC[P+](CCCCCC)(CCCCCC)CCCCCC , the value recorded as its activity coefficient is 0.07

Given item Cc1ccccc1C [1,2-dimethylbenzene] + CC(CC(C)(C)C)CP(=O)([O-])CC(C)CC(C)(C)C.CCCCCCCCCCCCCC[P+](CCCCCC)(CCCCCC)CCCCCC , the value recorded as its activity coefficient is 0.67

Given item CC1CCCCC1 [methylcyclohexane] + CC(CC(C)(C)C)CP(=O)([O-])CC(C)CC(C)(C)C.CCCCCCCCCCCCCC[P+](CCCCCC)(CCCCCC)CCCCCC , the value recorded as its activity coefficient is 0.78

[a] CCCCO [butan-1-ol] + CC(CC(C)(C)C)CP(=O)([O-])CC(C)CC(C)(C)C.CCCCCCCCCCCCCC[P+](CCCCCC)(CCCCCC)CCCCCC
[b] c1ccccc1 [benzene] + CC(CC(C)(C)C)CP(=O)([O-])CC(C)CC(C)(C)C.CCCCCCCCCCCCCC[P+](CCCCCC)(CCCCCC)CCCCCC
[in] I'm curious whether a or b has the smaller activity coefficient number. Which is it? Refer to your chosen entry by its label in the reply.
[out] a
(a: 0.12, b: 0.52)
